targetOrSystem: human Fc (human)
test: ELISA, negative control
endpointLabel: optical density (OD)
Just the number please, in OD, no unit attached.

Solved cases (4 shown):
[[record]]
binder = "374_H11 (antibody, V domains shown) VH: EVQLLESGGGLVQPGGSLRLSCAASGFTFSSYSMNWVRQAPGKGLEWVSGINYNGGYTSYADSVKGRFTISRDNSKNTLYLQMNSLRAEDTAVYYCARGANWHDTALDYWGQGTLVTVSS VL: DIQMTQSPSSLSASVGDRVTITCRASQSIISYVNWYQQKPGKAPKLVIYAATSLHSGVPSRFSGSGSGTDFTLTISSLQPEDFATYYCQQSYSNPLTFGGGTKVEIK"
endpointlabel = "optical density"
observedmeasurement = 0.169

[[record]]
binder = "369_C09 (antibody, V domains shown) VH: EVQLLESGGGLVQPGGSLRLSCAASGFTFSSYGMHWVRQAPGKGLEWVSSINYNGGYTGYADSVKGRFTISRDNSKNTLYLQMNSLRAEDTAVYYCARAATWHDTHLDYWGQGTLVTVSS VL: DIQMTQSPSSLSASVGDRVTITCRASQSIVSYLNWYQQKPGKAPKLVIYAATSRHSGVPSRFSGSGSGTDFTLTISSLQPEDFATYYCQQSYDLPLTFGGGTKVEIK"
endpointlabel = "optical density"
observedmeasurement = 0.32

[[record]]
binder = "365_B04 (antibody, V domains shown) VH: EVQLLESGGGLVQPGGSLRLSCAASGFTFSSYGMHWVRQAPGKGLEWVASINYNSGYTSYADSVKGRFTISRDNSKNTLYLQMNSLRAEDTAVYYCARAANWHDTALDYWGQGTLVTVSS VL: DIQMTQSPSSLSASVGDRVTITCRASQSILTYLNWYQQKPGKAPKLLIYAATSRHSGVPSRFSGSGSGTDFTLTISSLQPEDFATYYCQQSDESPLTFGGGTKVEIK"
endpointlabel = "optical density"
observedmeasurement = 0.271

[[record]]
binder = "373_H03 (antibody, V domains shown) VH: EVQLLESGGGLVQPGGSLRLSCAASGFTFSSYSMNWVRQAPGKGLEWVSGINYNSGYKSYADSVKGRFTISRDNSKNTLYLQMNSLRAEDTAVYYCARGANWHDTALDYWGQGTLVTVSS VL: DIQMTQSPSSLSASVGDRVTITCRASQSILSYLNWYQQKPGKAPKLLIYATTSRASGVPSRFSGSGSGTDFTLTISSLQPEDFATYYCQQSYENPLTFGGGTKVEIK"
endpointlabel = "optical density"
observedmeasurement = 0.172


Would you kindly look at the next entry?
### Prompt For the binder 370_H02 (antibody, V domains shown) VH: EVQLLESGGGLVQPGGSLRLSCAASGFTFDSYSMNWVRQAPGKGLEWVSGINYNSGYTSYADSVKGRFTISRDNSKNTLYLQMNSLRAEDTAVYYCARGANWHDTHLDYWGQGTLVTVSS VL: DIQMTQSPSSLSASVGDRVTITCRASQSILTYLNWYQQKPGKAPKLLIYAATSRASGVPSRFSGSGSGTDFTLTISSLQPEDFATYYCQQSYESPLTFGGGTKVEIK , what optical density is on record?
### Response 0.386
